// reported DC50 for each item listed
targetOrTestSystem: HiBiT-tagged BCL-xL (Homo sapiens)
Construct: expressed in transfected cells; host or cells: NCI-H1650 (ATCC No. CRL-5883), engineered HiBiT cell line
Sequence (Q07817 whole entry): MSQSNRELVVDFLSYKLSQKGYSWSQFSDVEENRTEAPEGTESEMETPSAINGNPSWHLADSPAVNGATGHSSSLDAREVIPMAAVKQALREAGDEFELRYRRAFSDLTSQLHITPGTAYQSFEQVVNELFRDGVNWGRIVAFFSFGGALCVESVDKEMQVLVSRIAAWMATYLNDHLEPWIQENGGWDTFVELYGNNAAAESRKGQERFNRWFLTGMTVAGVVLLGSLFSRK
assayRemarks: NCI-H1650 BCL-xL protein levels, Nano-Glo HiBiT Lytic Detection
Type: cell-based
experimentalConditions: NCI-H1650 expressing HiBiT-tagged BCL-xL, overnight incubation, read-out: Bcl-xl HIBIT NCIH1650 DC50

>  <molecule>
Cc1ncsc1-c1ccc(CNC(=O)[C@@H]2C[C@@H](O)CN2C(=O)[C@@H](NC(=O)C2(F)CC2)C(C)(C)SCCCCCCCCCCCN(C)CCOC23CC4(C)CC(C)(CC(Cn5ncc(-c6ccc(N7CCCc8c7nnc(Nc7nc9ccccc9s7)c8C)nc6C(=O)O)c5C)(C4)C2)C3)cc1

>  <experimentalReadout>
DC50

>  <reportedMeasurement>
> 1670 nM

$$$$
>  <molecule>
Cc1ncsc1-c1ccc(CNC(=O)[C@@H]2C[C@@H](O)CN2C(=O)[C@@H](NC(=O)C2(F)CC2)C(C)(C)C)c(OCCCCCCN(C)CCOC23CC4(C)CC(C)(CC(Cn5ncc(-c6ccc(N7CCCc8c7nnc(Nc7nc9ccccc9s7)c8C)nc6C(=O)O)c5C)(C4)C2)C3)c1

>  <experimentalReadout>
DC50

>  <reportedMeasurement>
> 1670 nM

$$$$
>  <molecule>
Cc1ncsc1-c1ccc([C@H](C)NC(=O)[C@@H]2C[C@@H](O)CN2C(=O)[C@@H](NC(=O)CCCCCCNC(=O)c2nc(N3CCCc4c3nnc(Nc3nc5ccccc5s3)c4C)ccc2-c2cnn(CC34CC5(C)CC(C)(C3)CC(OCCN3CCCC3)(C5)C4)c2C)C(C)(C)C)cc1

>  <experimentalReadout>
DC50

>  <reportedMeasurement>
1 nM

$$$$

What value of DC50 has been reported for the following molecule? Cc1ncsc1-c1ccc([C@H](C)NC(=O)C2C[C@@H](O)CN2C(=O)C(NC(=O)COCCOCCOCCOCCN(C)CCOC23CC4(C)CC(C)(CC(Cn5ncc(-c6ccc(N7CCCc8c7nnc(Nc7nc9ccccc9s7)c8C)nc6C(=O)O)c5C)(C4)C2)C3)C(C)(C)C)cc1 (stereo in doubt)
> 1670 nM
